Data provenance is patent US7101878B1.

target: 5-HT2a (Homo sapiens); test: Selectivity: 5-HT2a
Sequence (P28223 whole entry, species assumed): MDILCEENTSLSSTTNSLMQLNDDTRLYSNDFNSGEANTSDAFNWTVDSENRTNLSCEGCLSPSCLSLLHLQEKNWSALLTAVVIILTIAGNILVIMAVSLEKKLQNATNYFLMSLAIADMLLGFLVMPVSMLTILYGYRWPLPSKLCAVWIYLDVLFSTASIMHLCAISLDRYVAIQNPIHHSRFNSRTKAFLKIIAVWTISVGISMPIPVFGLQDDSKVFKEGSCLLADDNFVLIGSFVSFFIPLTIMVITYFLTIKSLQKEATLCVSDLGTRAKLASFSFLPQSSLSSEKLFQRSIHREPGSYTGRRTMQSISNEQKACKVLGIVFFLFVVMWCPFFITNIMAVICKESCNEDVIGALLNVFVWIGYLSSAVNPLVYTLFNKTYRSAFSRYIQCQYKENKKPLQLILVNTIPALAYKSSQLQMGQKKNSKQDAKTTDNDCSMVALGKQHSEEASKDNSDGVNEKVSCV
Measurement Name: pKi
Keep in mind that pKi stands for -log10 of concentration in molar terms.

Reference set, count: 3
In [3]: df
Out[3]:
                                     smiles  measurement_name  reading
0  COc1cc(OC)c(NC(=O)c2ccc(Cc3cc4c(cc3OC)C(C)(C)CCC4(C)C)o2)c(OC)c1               pKi     5.57
1  Cc1cc2c(cc1Cc1ccc(C(=O)NC[C@H]3CC[C@H](CNC(=N)N)CC3)o1)C(C)(C)CCC2(C)C               pKi     5.92
2  COc1cc(OC)c(NC(=O)c2ccc(Cc3cc4c(cc3C)C(C)(C)CCC4(C)C)o2)c(OC)c1               pKi     5.43

Please look at the following molecule next.
Give its pKi value. Item: "COc1cccc(OC)c1NC(=O)c1ccc(Cc2cc3c(cc2C)C(C)(C)CCC3(C)C)o1" 5.63
